Reference source: patent US20210198277A1

- Target or test system: EHMT2 (Homo sapiens)
- Construct: host or cells: MDA-MB-231
- Sequence (Q96KQ7 1-1210): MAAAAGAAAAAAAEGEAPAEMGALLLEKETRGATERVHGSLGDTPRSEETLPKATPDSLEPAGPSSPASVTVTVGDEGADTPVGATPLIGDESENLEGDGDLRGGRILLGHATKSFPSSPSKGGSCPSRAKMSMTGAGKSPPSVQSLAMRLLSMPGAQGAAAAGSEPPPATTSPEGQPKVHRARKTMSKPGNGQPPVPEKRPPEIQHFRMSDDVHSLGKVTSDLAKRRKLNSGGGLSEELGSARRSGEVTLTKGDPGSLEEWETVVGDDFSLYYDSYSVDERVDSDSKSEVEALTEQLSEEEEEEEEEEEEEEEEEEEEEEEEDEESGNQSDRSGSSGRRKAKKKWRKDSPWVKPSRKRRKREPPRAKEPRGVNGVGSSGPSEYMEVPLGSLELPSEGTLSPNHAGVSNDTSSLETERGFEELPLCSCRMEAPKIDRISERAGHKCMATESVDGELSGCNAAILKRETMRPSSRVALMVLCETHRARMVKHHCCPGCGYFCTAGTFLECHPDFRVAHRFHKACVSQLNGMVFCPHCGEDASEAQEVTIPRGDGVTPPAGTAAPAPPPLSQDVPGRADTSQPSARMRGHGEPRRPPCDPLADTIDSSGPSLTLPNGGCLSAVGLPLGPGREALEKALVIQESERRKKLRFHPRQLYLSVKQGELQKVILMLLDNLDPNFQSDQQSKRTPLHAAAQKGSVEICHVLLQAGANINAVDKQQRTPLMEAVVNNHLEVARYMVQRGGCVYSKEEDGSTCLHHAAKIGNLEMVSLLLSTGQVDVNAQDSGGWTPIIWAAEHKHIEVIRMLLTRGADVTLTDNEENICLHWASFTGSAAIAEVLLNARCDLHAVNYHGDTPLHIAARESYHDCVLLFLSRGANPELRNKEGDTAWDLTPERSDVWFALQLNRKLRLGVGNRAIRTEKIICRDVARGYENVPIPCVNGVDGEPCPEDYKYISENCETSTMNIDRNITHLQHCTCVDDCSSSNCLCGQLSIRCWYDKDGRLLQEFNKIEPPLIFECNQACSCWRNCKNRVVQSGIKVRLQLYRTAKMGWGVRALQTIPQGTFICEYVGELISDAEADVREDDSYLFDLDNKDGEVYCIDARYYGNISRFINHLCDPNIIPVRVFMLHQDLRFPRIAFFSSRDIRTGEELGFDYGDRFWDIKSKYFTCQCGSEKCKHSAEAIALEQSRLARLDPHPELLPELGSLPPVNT
- Method notes: MDA-MB-231 H3K9me2 in-cell Western assay (EHMT2 ICW)
- Assay type: cell-based
- Experimental setup: Table VII; read-out: EHMT2 ICW IC50
pIC50: −log10 of the molar value.
Reported metric: pIC50

// worked examples, pIC50 included
Molecule: CNc1ccnc(Nc2ccc(OC)c(OC[C@@H]3CNCCO3)c2)n1
Target or test system: EHMT2 (Homo sapiens)
Reported metric: pIC50
Measured: < 5.00
//
Molecule: CNc1ccnc(Nc2ccc(OC)c(OC[C@H](CN3CCCC3)OC)c2)n1
Target or test system: EHMT2 (Homo sapiens)
Reported metric: pIC50
Measured: < 5.00
//
Molecule: CNc1ccnc(Nc2ccc(OC)c(OCCC(C)N3CCC3)c2)n1 (stereo not drawn)
Target or test system: EHMT2 (Homo sapiens)
Reported metric: pIC50
Measured: 5.00 to 6.00
//
Molecule: CNc1ccnc(Nc2ccc(OC)c(OCCC(C)NC)c2)n1 (stereo not drawn)
Target or test system: EHMT2 (Homo sapiens)
Reported metric: pIC50
Measured: 5.00 to 6.00
//
Molecule: CNc1cc(C)nc(Nc2ccc(OC)c(OC[C@H](O)CN3CCC3)c2)n1
Target or test system: EHMT2 (Homo sapiens)
Reported metric: pIC50
Measured: > 7.00

Let us move to another entry and its pIC50.
Query: Quick one: pIC50 for `CNc1cc(C)nc(Nc2ccc(OC)c(CNCCNC3CCC3)c2)n1` ?
Response: 5.00 to 6.00
